- experiment.description: qHTS assay to identify small molecule agonists of the estrogen related receptor (ERR) signaling pathway from Tox21 library (AID 1224849); also: % is scaled to controls: 0 for no effect and ±100 for the full control effect; nearly all actives have a fitted effect of over 15% in size
- condition.info: ERR reporter cell line, ONE-Glo luciferase, 18 h; at 42.5 µM (top of the series)
As shown below, each of these molecules has a reported activity change, positive = activation value.
Value expressed in %; do not type the unit.

Quick one: activity change, positive = activation of `O=C(Nc1ccc(Br)cc1)c1cc(Br)cc(Br)c1O` ?
-35.9

====

- target.system: Estrogen receptor (Homo sapiens) (UniProt P03372)
- Sequence (P03372 whole entry, looked up): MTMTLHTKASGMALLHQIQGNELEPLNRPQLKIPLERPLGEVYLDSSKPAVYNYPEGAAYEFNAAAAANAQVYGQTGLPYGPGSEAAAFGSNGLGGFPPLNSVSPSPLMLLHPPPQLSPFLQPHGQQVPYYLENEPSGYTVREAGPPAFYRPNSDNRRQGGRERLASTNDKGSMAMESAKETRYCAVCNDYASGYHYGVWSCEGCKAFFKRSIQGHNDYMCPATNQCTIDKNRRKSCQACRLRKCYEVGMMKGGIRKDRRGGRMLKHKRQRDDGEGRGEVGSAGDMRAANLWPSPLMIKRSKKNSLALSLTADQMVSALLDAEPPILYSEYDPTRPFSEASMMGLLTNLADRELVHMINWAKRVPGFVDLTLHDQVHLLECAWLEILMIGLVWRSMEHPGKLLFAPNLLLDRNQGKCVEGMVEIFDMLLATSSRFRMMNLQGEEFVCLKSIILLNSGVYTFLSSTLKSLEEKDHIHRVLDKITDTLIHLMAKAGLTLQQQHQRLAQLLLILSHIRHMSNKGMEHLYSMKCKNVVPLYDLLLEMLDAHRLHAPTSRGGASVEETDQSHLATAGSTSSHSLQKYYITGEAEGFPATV
- experiment.description: qHTS assay to identify small molecule agonists of the estrogen receptor alpha (ER-alpha) signaling pathway using the BG1 cell line (AID 743079); also: nearly all actives have a fitted effect of over 20% in size; as to activation: % is scaled to controls: 0 for no effect and ±100 for the full control effect
- condition.info: BG1Luc4E2 cells, ERE-luciferase agonist, 22 h; series mostly up to 70.3 µM
Records with an inconclusive call do not appear. Calls of active or inactive are those of the source. Calls come from the whole dose curve; as a rule, active = well fitted activation curve with a large enough effect in the repeat runs; inconclusive = weak or mixed curves, or effect the other way; inactive = no such curve, though single readings can be large or run the other way.
Entry note: the call must match one of 1 (active), 0 (inactive)

molecule: NNC(=S)NN
label: 0

molecule: O=P(Oc1ccccc1)(Oc1ccccc1)Oc1ccccc1
label: 1

molecule: Cc1ccccc1[N+](=O)[O-]
label: 0

Which outcome was entered for the molecule c1cc(OCC2CO2)ccc1Cc1ccc(OCC2CO2)cc1 (configuration not stated) in this test?
0

Which outcome was entered for the molecule `O=[N+]([O-])c1cccc2ccccc12` in this test?
0

Which outcome was entered for the molecule `CC(C)NC(C)C` in this test?
0

Which outcome was entered for the molecule CC(C)C(=O)OCC(C)(C)C(OC(=O)C(C)C)C(C)C (configuration not stated) in this test?
1
